Would you kindly list inhibition for each of these compounds?
Molecular target: Fibroblast growth factor receptor 2 (Homo sapiens) (UniProt P21802);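 also: reported figure is a mean percent inhibition of FGFR2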
Sequence (P21802 22-821 limits assumed): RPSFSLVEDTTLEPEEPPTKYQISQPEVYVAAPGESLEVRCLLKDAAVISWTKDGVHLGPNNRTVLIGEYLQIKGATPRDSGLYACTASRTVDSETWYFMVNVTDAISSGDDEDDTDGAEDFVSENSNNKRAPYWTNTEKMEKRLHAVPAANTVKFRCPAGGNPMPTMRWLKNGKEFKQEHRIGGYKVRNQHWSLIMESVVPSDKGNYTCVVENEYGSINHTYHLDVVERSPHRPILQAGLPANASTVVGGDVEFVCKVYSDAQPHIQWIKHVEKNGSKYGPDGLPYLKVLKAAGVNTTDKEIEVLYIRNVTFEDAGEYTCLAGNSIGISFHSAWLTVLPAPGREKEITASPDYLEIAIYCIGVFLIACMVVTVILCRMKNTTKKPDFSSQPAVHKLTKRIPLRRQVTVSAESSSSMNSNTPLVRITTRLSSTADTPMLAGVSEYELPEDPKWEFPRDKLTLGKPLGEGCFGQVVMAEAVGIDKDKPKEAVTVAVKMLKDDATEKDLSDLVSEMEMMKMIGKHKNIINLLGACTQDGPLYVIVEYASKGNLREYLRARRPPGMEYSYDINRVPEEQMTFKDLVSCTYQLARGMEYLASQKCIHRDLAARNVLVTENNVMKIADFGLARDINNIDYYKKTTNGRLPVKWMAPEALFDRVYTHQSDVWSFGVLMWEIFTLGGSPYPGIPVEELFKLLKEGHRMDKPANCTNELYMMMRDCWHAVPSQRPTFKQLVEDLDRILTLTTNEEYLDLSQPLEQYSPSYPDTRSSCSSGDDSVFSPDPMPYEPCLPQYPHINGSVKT
Conditions: at 1 µM
Kindly write the number and append the unit.

As a guide, the following entries are already answered.
Query: Recall the recorded inhibition for `O=C1NC(=O)C(N2CCc3ccccc32)=C1c1ccc(Cl)cc1` with Fibroblast growth factor receptor 2 (Homo sapiens) (UniProt P21802) and state it.
Response: 14%

Query: Follow-up item: `Fc1cccc(COc2ccc(Nc3ncnc4cc(-c5ccc[nH]5)sc34)cc2Cl)c1`
Response: 0.05%

Query: Item: `CS(=O)(=O)CCN(CC#N)Cc1ccc(-c2ccc3ncnc(Nc4ccc(OCc5cccc(F)c5)c(Cl)c4)c3c2)o1`
Response: -2.13%

Query: Now try `COc1cc2ncn(-c3cc(OCc4ccccc4Cl)c(C(N)=O)s3)c2cc1OC` .
Response: 13.2%

Query: // next record `O=C1NC(=O)C(c2ccc(Cl)cc2)=C1Nc1ccc(Cl)c(C(=O)O)c1`
Response: 2.13%

Return reported inhibition values for all items listed beneath this line.
1. Nc1nc(-c2ccc3c(c2)C(=Cc2cc(Br)c(O)c(Br)c2)C(=O)N3)cs1
2. CCCN1CCC(Oc2cc(Nc3nc(Nc4cccc(F)c4C(N)=O)c4cc[nH]c4n3)c(OC)cc2Cl)CC1
3. CS(=O)(=O)CCNCc1nc(-c2ccc3ncnc(Nc4ccc(F)c(Cl)c4)c3c2)cs1
4. Nc1ncnc2occ(-c3ccc(NC(=O)Nc4cc(C(F)(F)F)cc(C(F)(F)F)c4)cc3)c12

Response:
1.88%
3.3%
5.07%
68.8%

* * *

Molecular target: 5'-AMP-activated protein kinase catalytic subunit alpha-2 (Homo sapiens) (UniProt P54646);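 also: mean inhibition measured on the AMPK complex of alpha2, beta1 and gamma1 subunits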
Sequence (P54646 whole entry, looked up): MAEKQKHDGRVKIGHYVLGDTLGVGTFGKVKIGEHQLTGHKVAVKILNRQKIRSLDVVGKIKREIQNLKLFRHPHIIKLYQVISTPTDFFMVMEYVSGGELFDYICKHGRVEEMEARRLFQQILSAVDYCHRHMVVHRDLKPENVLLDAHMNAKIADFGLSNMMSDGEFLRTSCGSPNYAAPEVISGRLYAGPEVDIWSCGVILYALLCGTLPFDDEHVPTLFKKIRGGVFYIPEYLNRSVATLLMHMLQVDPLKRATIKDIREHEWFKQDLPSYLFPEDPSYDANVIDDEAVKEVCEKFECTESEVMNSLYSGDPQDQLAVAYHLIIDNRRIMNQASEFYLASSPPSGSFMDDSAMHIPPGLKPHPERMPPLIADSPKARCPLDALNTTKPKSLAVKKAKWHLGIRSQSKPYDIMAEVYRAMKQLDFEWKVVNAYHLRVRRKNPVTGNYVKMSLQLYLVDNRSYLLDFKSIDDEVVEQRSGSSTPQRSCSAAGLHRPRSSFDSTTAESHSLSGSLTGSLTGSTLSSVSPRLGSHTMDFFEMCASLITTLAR
Settings: at 0.1 µM
Description: GSK_PKIS: AMPKA2 (A2B1G1) mean inhibition at 0.1 uM [Nanosyn]
Record form. Attribute: inhibition. Fill in for each entry.
Write the quantity with the unit trailing the number.

Field: example entries. Status: answers known.
Query: Item under review: `O=C1NC(=O)C(N2CCc3ccccc32)=C1c1ccc(Cl)cc1` . Reported inhibition?
Response: 4.52%

Query: Another compound: `Nc1ncnc2occ(-c3ccc(NC(=O)Nc4cccc(C(F)(F)F)c4)cc3)c12`
Response: 2.97%

# return inhibition for each item in the list
1. CCn1c(-c2nonc2N)nc2c(C#CC(C)(C)O)nc(OC[C@@H](N)c3ccccc3)cc21
2. [O-][S+]1CCN(Cc2ccc(-c3ccc4ncnc(Nc5ccc(OCc6ccccc6)c(F)c5)c4c3)o2)CC1
3. COc1ccc(-c2ccncc2)cc1C(N)=O

Response:
1: 4.59%; 2: 0.83%; 3: 7.48%

* * *

Molecular target: NUAK family SNF1-like kinase 1 (Homo sapiens)
Sequence (whole entry): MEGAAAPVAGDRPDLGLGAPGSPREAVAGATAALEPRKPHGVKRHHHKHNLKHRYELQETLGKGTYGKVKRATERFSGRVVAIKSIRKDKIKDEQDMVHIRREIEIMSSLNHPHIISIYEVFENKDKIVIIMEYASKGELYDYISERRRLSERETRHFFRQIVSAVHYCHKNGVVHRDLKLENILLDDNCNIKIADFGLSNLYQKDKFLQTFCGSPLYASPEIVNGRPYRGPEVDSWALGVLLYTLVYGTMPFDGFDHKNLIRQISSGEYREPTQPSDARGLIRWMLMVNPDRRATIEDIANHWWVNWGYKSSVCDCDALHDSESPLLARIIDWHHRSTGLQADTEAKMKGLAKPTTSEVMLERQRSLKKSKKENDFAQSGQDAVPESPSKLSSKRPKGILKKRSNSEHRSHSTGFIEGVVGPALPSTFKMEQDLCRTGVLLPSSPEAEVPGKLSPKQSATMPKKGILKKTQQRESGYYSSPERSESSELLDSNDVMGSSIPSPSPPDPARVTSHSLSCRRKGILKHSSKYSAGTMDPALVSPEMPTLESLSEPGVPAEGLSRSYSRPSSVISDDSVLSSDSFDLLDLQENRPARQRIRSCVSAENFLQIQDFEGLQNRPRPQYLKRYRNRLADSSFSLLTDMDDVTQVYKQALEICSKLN
Settings: at 1 µM
Description: GSK_PKIS: ARK5 mean inhibition at 1 uM [Nanosyn]
Label Not fulfilled if inhibition falls below 4%; label Fulfilled in every other case.

Query: Please indicate if the recorded inhibition for `Cc1nnc(-c2ccc(C)c(-c3ccc(C(=O)Nc4cccc(C#N)c4)cc3)c2)o1` meets or exceeds 4%.
Response: Not fulfilled

Query: How about this compound: `CS(=O)(=O)CCNCc1ccc(-c2ccc3ncnc(Nc4ccc(OCc5cccc(F)c5)c(C(F)(F)F)c4)c3c2)o1`
Response: Not fulfilled

Query: Try `O=C1NC(=O)C(N2CCc3ccccc32)=C1c1ccc(Cl)cc1` next.
Response: Fulfilled

Query: Now consider `CS(=O)(=O)Nc1ccc(N/C=C2\C(=O)Nc3ccccc32)cc1` and answer again.
Response: Fulfilled

Note: attention shifts to another entry.
Query: Does the reported inhibition for `COc1cc(C)c(NC(=O)CN(C)C)cc1Nc1nc(Nc2cccc(F)c2C(N)=O)c2cc[nH]c2n1` fall at or above the 4% mark?
Response: Fulfilled

* * *

Target: Homeodomain-interacting protein kinase 1 (Homo sapiens) (UniProt Q86Z02);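 also: each value is a mean percent inhibition of HIPK1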
Sequence (Q86Z02 whole entry, looked up): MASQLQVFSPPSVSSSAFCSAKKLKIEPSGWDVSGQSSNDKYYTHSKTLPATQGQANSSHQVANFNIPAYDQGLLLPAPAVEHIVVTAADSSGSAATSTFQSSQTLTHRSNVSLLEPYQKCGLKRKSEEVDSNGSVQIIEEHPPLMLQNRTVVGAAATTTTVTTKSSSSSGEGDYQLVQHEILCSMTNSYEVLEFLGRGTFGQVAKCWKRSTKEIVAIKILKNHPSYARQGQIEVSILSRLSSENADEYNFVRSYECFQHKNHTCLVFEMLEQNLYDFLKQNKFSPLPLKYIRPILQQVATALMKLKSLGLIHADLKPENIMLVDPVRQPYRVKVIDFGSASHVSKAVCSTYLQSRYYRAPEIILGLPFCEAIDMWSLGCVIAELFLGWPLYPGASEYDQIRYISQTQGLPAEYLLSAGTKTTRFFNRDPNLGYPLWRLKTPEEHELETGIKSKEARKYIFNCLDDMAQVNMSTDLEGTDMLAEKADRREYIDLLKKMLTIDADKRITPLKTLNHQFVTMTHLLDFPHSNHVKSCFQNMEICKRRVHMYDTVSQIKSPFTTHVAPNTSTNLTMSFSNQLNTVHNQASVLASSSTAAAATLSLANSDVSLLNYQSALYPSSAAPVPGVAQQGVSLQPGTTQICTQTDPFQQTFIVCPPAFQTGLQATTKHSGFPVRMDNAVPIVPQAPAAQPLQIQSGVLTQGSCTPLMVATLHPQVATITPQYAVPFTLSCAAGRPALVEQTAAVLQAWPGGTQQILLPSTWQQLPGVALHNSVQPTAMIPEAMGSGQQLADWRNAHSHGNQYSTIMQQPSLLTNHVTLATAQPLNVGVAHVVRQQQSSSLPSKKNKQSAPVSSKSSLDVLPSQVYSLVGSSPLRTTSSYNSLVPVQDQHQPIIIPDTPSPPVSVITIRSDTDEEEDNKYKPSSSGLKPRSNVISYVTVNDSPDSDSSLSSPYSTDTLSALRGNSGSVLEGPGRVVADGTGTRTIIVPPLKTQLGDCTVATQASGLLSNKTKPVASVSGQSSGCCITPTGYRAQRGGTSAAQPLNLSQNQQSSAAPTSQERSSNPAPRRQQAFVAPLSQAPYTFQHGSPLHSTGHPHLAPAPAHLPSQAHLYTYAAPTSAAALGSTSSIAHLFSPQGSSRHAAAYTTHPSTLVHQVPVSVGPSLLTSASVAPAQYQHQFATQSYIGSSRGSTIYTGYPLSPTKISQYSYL
Settings: at 0.1 µM
Exercise: state measured inhibition for each of the compounds provided.
Numbers only, in %.

Look over these answered cases.
Query: Given the entry `CCCN1CCC=C(c2ccc(Nc3nc(Nc4ccccc4C(N)=O)c4cc[nH]c4n3)c(C)c2)C1` , report its measured inhibition.
Response: 16.3

Query: # iterate: `CNC(=O)c1cncc(/C=C/c2c(Cl)cccc2Cl)c1`
Response: -2.63

Query: Would you kindly repeat that for `Cc1nn(C)c2cc(N(C)c3ccnc(Nc4cccc(S(N)(=O)=O)c4)n3)ccc12` ?
Response: -3.06

Query: How about `CCN1CCC(CC(=O)Nc2n[nH]c3nc(-c4cccs4)c(Br)cc23)CC1` ?
Response: 3.88

Query: Moving on to the next compound: `c1cnn2ncc(-c3ccnc(Nc4ccc5c(c4)OCCO5)n3)c2c1`
Response: 86.2

Consider the additional compound presented here.
Query: If you can, please state the reported inhibition value of `Nc1ncnc2occ(-c3ccc(NC(=O)Nc4cc(C(F)(F)F)cc(C(F)(F)F)c4)cc3)c12` .
Response: 0.45

* * *

Task for the reader: assign each of the following molecules its reported inhibition.
Target: Insulin receptor-related protein (Homo sapiens) (UniProt P14616);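 also: mean percent inhibition of IRR, reported within the GSK PKIS screening panel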
Sequence (P14616 27-742 limits assumed): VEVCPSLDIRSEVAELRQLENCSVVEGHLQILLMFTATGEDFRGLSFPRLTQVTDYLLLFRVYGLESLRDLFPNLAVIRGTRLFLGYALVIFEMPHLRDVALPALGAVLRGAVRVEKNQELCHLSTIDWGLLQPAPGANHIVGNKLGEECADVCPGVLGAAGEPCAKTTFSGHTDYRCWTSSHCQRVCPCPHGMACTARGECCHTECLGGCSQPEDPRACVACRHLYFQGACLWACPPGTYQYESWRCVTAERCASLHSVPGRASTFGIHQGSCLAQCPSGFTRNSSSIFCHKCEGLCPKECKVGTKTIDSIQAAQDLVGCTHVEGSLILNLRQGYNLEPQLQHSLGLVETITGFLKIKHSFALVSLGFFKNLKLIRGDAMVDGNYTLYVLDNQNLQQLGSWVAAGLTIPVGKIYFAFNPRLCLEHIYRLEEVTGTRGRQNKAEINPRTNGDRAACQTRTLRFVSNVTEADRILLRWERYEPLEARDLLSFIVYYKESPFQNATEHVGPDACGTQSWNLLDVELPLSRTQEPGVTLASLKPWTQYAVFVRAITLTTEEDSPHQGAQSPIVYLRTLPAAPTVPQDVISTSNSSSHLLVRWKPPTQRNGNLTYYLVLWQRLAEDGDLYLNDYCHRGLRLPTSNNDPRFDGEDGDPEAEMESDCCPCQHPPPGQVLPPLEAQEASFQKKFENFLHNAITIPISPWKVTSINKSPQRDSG
Sequence (P14616 747-1297 limits assumed): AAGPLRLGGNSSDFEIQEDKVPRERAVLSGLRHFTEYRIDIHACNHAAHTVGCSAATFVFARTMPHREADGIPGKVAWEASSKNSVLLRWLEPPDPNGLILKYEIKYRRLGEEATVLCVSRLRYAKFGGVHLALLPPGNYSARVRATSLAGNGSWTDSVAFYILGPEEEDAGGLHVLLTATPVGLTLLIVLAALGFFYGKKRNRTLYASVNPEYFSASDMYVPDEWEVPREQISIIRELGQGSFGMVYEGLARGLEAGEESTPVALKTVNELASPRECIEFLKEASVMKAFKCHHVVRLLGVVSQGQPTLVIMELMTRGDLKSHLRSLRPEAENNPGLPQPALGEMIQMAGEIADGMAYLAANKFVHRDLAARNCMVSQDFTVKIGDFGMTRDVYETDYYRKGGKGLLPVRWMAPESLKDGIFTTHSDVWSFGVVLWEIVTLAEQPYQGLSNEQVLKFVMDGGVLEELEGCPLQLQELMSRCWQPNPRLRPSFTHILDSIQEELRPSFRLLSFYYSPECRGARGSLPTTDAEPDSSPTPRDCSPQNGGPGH
Conditions: at 0.1 µM
One number for each entry, in %.

Answered examples (4):
Query: Recall the recorded inhibition for `CCCN1CCC=C(c2ccc(Nc3nc(Nc4ccccc4C(N)=O)c4cc[nH]c4n3)c(C)c2)C1` with Insulin receptor-related protein (Homo sapiens) (UniProt P14616) and state it.
Response: 23.2

Query: Now the same for `CCn1c(-c2nonc2N)nc2cncc(C(=O)N3CCNCC3)c21`
Response: 4.06

Query: Next record, please: `Cn1cc(C=C2C(=O)Nc3cccnc32)c2ccccc21`
Response: 0.41

Query: Now the molecule `CS(=O)(=O)Nc1ccc(N/C=C2\C(=O)Nc3ccccc32)cc1`
Response: -3.26

Lab note: next molecule to report on.
Query: Observed inhibition on Insulin receptor-related protein (Homo sapiens) (UniProt P14616) for `O=C1Nc2ccc(C(=O)c3ccco3)cc2C1=Cc1cc(Cl)c(O)c(Cl)c1` , please.
Response: 1.08

* * *

Target: Tyrosine-protein kinase TXK (Homo sapiens);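 also: value given is the mean percent inhibition of TXK kinase activity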
Settings: at 1 µM
Give measured inhibition for each item. Keep answers brief.
Numbers only, in %.

As a guide, the following entries are already answered.
Query: Returns the measured inhibition for the input molecule. Input: `CNC(=O)c1cncc(/C=C/c2c(Cl)cccc2Cl)c1`
Response: 22.7

Query: Also, `COc1cc2ncn(-c3cc(O[C@@H](C)c4ccccc4Cl)c(C(N)=O)s3)c2cc1OC` please.
Response: 5.82

Query: Same for `COc1cc(C)c(NC(=O)CN(C)C)cc1Nc1nc(Nc2cccc(F)c2C(N)=O)c2cc[nH]c2n1`
Response: -0.74

Query: // same read-out, input: `O=C1NC(=O)C(N2CCc3ccccc32)=C1c1ccc(Cl)cc1`
Response: 8.99

Query: Lookup `Cc1ccc(NC(=O)c2ccnc(N3CCCC3)c2)cc1-c1ccc(C(=O)NCC2CC2)cc1`
Response: 0.09

Query: Now try `NC(=O)c1ccc(-c2nc(-c3ccccn3)c(-c3ccc4c(c3)OCO4)[nH]2)cc1` .
Response: 3.28

For every item in the list below, what is its measured inhibition?
1. O=C1NC(=O)C(c2ccccc2Cl)=C1Nc1cccc(O)c1
2. CC(=O)Nc1cccc(C#Cc2cncnc2Nc2ccc(OCc3cccc(F)c3)c(Cl)c2)n1
3. COc1cc2ncn(-c3cc(OCc4ccccc4C(F)(F)F)c(C(N)=O)s3)c2cc1OC
4. COc1cc2ncn(-c3cc(OCc4ccccc4Cl)c(C(N)=O)s3)c2cc1OC
5. CC1=C(C(=O)Nc2ccc3[nH]ncc3c2)C(c2ccc(F)cc2)NC(=O)N1 (stereo not given)
6. COc1ccccc1Nc1ncc(-c2ccccc2)o1

Response:
4.53
0.46
2.84
13.2
3.78
6.86

Each of the following entries comes with a recorded value; kindly state inhibition for each.
1. COc1ccc(COc2ccc(Cc3cnc(N)nc3N)cc2OC)cc1
2. NC(=O)c1cccc(Nc2nccc(Nc3cccc4[nH]ncc34)n2)c1
3. c1cnn2ncc(-c3ccnc(Nc4ccc5c(c4)OCCO5)n3)c2c1
4. CCN1CCC(CC(=O)Nc2n[nH]c3nc(-c4cccs4)c(Br)cc23)CC1
5. O=C1NC(=O)C(c2cccc(Cl)c2)=C1Nc1ccc(O)c(Cl)c1

Response:
1: 4.97; 2: 55.1; 3: 17.6; 4: -3.55; 5: 3.52

// each molecule listed below needs its inhibition
1. COc1cc(C=NNc2ncnc3c2cnn3-c2ccccc2)ccc1O
2. CCc1cccc(NC(=O)Nc2ccc(Oc3ccc4nc(NC(=O)OC)[nH]c4c3)cc2)c1
3. CS(=O)(=O)CCNCc1nc(-c2ccc3ncnc(Nc4ccc(F)c(Cl)c4)c3c2)cs1
4. COc1cc2ncn(-c3cc(O[C@H](C)c4ccccc4Cl)c(C(N)=O)s3)c2cc1OC
5. CC1=C(C(=O)Nc2ccc3[nH]ncc3c2)C(c2ccc(Cl)c(Cl)c2)CC(=O)N1 (stereo not given)
6. NS(=O)(=O)c1cccc(-c2ccc3c(NC(=O)C4CC4)n[nH]c3c2)c1
7. Cc1nn(C)c2cc(N(C)c3ccnc(Nc4cccc(S(N)(=O)=O)c4)n3)ccc12

Response:
[5.94, 5.13, 15.9, 15.8, 0.6, -2.41, 79.2]

Please go through the list and note inhibition for each molecule.
1. CCn1c(-c2nonc2N)nc2c(C#CC(C)(C)O)nc(CN3CCCC3)cc21
2. COc1ccc2cc(-c3c(-c4ccncc4)nc(-c4ccc([S+](C)[O-])cc4)n3C)ccc2c1 (stereo not given)

Response:
1. 2.08
2. 4.06
